These data points were gathered from ChEMBL document CHEMBL1201862.

Measured GI50 accompanies every entry in the list below.
- Test system: SK-MEL-28
- ASSAY: NCI tumour cell line growth inhibition, 48 h
Calls of active or inactive are those of the source. No stated cut-off is given here; in the data, active = GI50 up to about 1.1 µM and inactive = higher.

MOLECULE: COC1=CC(=O)[C@]2(C)[C@H](C1=O)C(C)[C@H]2c1ccc(OC)cc1 (some centres undefined)
ASSAY TARGET: SK-MEL-28
GI50: > 100 µM (inactive)

MOLECULE: C1OC1C1CO1 (centres undefined)
ASSAY TARGET: SK-MEL-28
GI50: 51.8 µM (inactive)

MOLECULE: CC1(C)OCC(C2OC(C)(C)OC2[C@H]2O[C@@]3(O)[C@H]4[C@H](C=CC[C@@H]42)[C@@H](OCc2ccccc2)[C@H](OCc2ccccc2)[C@H]3OCc2ccccc2)O1 (some centres undefined)
ASSAY TARGET: SK-MEL-28
GI50: > 100 µM (inactive)

MOLECULE: CC12CCC(C1)C(C)(C)C2OC(=O)c1ccccc1N (centres undefined)
ASSAY TARGET: SK-MEL-28
GI50: 16.7 µM (inactive)

MOLECULE: CC(C)[C@](O)(C(=O)OCC1=CC[N+]2([O-])CC[C@@H](O)[C@@H]12)[C@H](C)O (some centres undefined) [INDICINE N-OXIDE]
ASSAY TARGET: SK-MEL-28
GI50: > 10000 µM (inactive)

MOLECULE: Cc1cccc(-c2nnc3s/c(=C\c4ccc(N(C)C)cc4)c(=O)n23)c1
ASSAY TARGET: SK-MEL-28
GI50: > 100 µM (inactive)

MOLECULE: COc1ccccc1NC(=O)C1=C(C)NC(C)=C(C(=O)Nc2ccccc2OC)C1c1ccc(C)cc1
ASSAY TARGET: SK-MEL-28
GI50: > 100 µM (inactive)

MOLECULE: O=C(Nn1c(-c2ccccc2)nc2ccccc2c1=O)c1ccc(Cl)cc1
ASSAY TARGET: SK-MEL-28
GI50: > 100 µM (inactive)

MOLECULE: CN(C)C(=O)C(NCCO)c1ccccc1 (centres undefined)
ASSAY TARGET: SK-MEL-28
GI50: > 100 µM (inactive)
